Data origin: ChEMBL document CHEMBL1949633

# assay comment: Half life in dog liver microsomes
# Type: ADME, Canis lupus familiaris, Microsome
measured endpoint: half-life (min)
Kindly provide the numeric value in min only, without the unit symbol.

**Q:** I have this compound here, C[C@@H]1CCCN1CCCOc1ccc(C(=O)C(C)(C)N2CCOCC2)cc1 , and I need its recorded half-life.
**A:** 10

====

Observed Ki for Histamine H3 receptor (Rattus norvegicus), reported per entry below.
Answer in nM, number only, no unit symbol.

Study these solved cases before continuing.
C[C@H]1CCCN1CCCOc1ccc(C(=O)CN2CCOCC2)cc1 ... 885
O=C(CN1CCOCC1)c1ccc(OCCCN2CCCC2)cc1 ... 594
CC(C(=O)c1ccc(OCCCN2CCC[C@H]2C)cc1)N1CCOCC1 (stereo partly specified) ... 105

**Q:** What reported Ki corresponds to C[C@@H]1CN(CC(=O)c2ccc(OCCCN3CCC[C@H]3C)cc2)C[C@H](C)O1 on Histamine H3 receptor (Rattus norvegicus)?
**A:** 78
